Test system: preimplantation mouse embryos (wild type, PPARδ+/+)
Assay: Complete hatching of cultured wild type mouse embryos
Format: cell-based
Conditions: Mus musculus; two-cell embryos cultured 96 hrs in different concentrations; estimated, Hill slope 1.0; read-out: ED50 of enhancement of complete embryo hatching
test_readout: EC50 (nM)
Respond with the bare value in nM.

*Q* Look up EC50 of `CCCc1c(OCCCOc2ccc(OCC(=O)O)cc2)ccc(C(C)=O)c1O` and report it.
*A* 21

Hello, the source for this data is patent US8632452B2, in case you need it.
